Sourced from paper PMC10397247

Subject of test: T1, 4H3395-AA
T1 chain: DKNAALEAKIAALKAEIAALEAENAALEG
Experiment: two-hybrid library CCmax;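 note: natural log of median RNA to DNA barcode read ratio; higher means stronger binding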
Measurement setup: mean of both orientations
For each entry below, report its interaction score value.
Answers are plain numbers.

                                     binder  quantitative_result
0  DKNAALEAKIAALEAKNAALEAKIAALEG [4H3381-AA]                -1.66

Batch lookup, interaction score per entry.
1. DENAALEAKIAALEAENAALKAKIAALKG [4H1310-AA]
2. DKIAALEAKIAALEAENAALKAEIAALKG [4H2330-AA]

a:
1. -0.984
2. -1.56

# batch size: 5; output interaction score per entry
1. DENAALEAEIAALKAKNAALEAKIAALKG [4H1142-AA]
2. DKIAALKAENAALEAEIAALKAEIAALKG [4H2698-AA]
3. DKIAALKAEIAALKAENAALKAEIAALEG [4H2649-AA]
4. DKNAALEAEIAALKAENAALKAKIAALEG [4H3165-AA]
5. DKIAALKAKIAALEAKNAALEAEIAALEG [4H2865-AA]

a:
1. -1.76
2. -1.65
3. -1.27
4. -1.37
5. -1.43
